Molecular target: canine TRPM8 (Canis lupus familiaris)
Sequence (Q1A7N1 1-1104): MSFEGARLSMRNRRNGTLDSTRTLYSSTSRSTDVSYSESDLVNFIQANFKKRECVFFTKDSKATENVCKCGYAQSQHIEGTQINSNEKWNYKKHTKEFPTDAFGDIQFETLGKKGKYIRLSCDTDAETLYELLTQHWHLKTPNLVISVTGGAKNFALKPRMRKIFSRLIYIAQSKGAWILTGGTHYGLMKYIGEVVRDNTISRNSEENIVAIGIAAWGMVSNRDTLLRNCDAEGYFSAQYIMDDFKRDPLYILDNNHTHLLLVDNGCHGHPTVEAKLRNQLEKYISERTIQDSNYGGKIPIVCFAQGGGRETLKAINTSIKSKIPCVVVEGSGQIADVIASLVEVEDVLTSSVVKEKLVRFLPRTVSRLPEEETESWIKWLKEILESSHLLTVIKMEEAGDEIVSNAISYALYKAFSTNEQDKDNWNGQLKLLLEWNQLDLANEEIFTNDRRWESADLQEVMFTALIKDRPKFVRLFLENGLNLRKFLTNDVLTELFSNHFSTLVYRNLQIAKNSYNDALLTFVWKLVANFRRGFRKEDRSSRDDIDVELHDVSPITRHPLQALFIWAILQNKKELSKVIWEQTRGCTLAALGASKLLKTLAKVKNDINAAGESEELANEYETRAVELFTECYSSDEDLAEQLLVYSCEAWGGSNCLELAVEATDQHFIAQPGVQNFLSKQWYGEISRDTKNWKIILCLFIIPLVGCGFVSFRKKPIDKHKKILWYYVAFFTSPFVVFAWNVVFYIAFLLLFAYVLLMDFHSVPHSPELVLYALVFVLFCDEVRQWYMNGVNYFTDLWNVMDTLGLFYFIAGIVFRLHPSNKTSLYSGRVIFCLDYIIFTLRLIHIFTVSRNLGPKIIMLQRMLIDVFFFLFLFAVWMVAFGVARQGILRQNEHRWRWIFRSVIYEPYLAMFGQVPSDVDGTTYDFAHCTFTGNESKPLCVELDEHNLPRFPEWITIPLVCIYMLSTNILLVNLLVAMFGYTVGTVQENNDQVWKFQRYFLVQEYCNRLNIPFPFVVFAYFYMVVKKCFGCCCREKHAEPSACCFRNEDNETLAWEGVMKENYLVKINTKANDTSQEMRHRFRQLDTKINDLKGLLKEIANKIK
Experiment: In Vitro Canine TRPM8 Functional Assay (Ca2+ fluorescence, icilin activation)
Format: cell-based
Details: compound at 0.5 μM; canine TRPM8, icilin activation; read-out: % Inh @ 0.5

{"compound": "O=S(=O)(c1ccc(C(F)(F)F)cc1)N(Cc1ccc(F)c(F)c1)c1cc2ccccc2s1 [Compound 132]", "inhibition at 0.5 µM, %": 56}
{"compound": "COc1ccc(CN(c2sc3ccccc3c2Br)S(=O)(=O)c2ccccc2)cc1 [Compound 164]", "inhibition at 0.5 µM, %": 97}
{"compound": "O=S(=O)(c1ccccc1)N(CCc1ccccc1)c1sc2ccccc2c1Cl [Compound 85]", "inhibition at 0.5 µM, %": 100}
{"compound": "O=S(=O)(c1ccccc1)N(c1cc2ccccc2s1)C1CCCCC1 [Compound 119]", "inhibition at 0.5 µM, %": 93}
{"compound": "CCCCS(=O)(=O)N(Cc1ccc(F)c(F)c1)c1sc2ccccc2c1Br [Compound 154]", "inhibition at 0.5 µM, %": 96}
{"compound": "CCCS(=O)(=O)N(Cc1ccc(F)c(F)c1)c1sc2ccccc2c1Br [Compound 153]", "inhibition at 0.5 µM, %": 97}
{"compound": "COc1cccc(S(=O)(=O)N(Cc2ccc(F)c(F)c2)c2sc3ccccc3c2C)c1 [Compound 25]", "inhibition at 0.5 µM, %": 99}
{"compound": "Cc1c(N(Cc2cccc3cccnc23)S(=O)(=O)c2ccsc2)sc2ccccc12 [Compound 17]", "inhibition at 0.5 µM, %": 97}
{"compound": "O=S(=O)(c1ccccc1)N(Cc1ccc(F)c(C(F)(F)F)c1)c1sc2ccccc2c1Br [Compound 177]", "inhibition at 0.5 µM, %": 96}
{"compound": "COc1ccccc1CN(c1cc2ccccc2s1)S(=O)(=O)c1ccccc1 [Compound 47]", "inhibition at 0.5 µM, %": 97}
{"compound": "COc1cc(CN(c2sc3ccccc3c2Br)S(=O)(=O)c2ccccc2)ccc1F [Compound 176]", "inhibition at 0.5 µM, %": 97}
{"compound": "O=S(=O)(c1ccccc1)N(Cc1ccc(OC(F)(F)F)cc1)c1cc2ccccc2s1 [Compound 58]", "inhibition at 0.5 µM, %": 98}
{"compound": "Cc1c(N(Cc2ccc(OC(F)(F)F)cc2)S(=O)(=O)c2cccc3cccnc23)sc2ccccc12 [Compound 21]", "inhibition at 0.5 µM, %": 98}
{"compound": "O=S(=O)(c1ccccc1)N(Cc1ccc(Cl)cc1)c1sc2ccccc2c1Cl [Compound 158]", "inhibition at 0.5 µM, %": 94}

###

Target: canine TRPM8 (Canis lupus familiaris)
Test: In Vitro Canine TRPM8 Functional Assay (Ca2+ fluorescence, icilin activation)
Assay type: cell-based
Conditions: HEK293 cells stably expressing canine TRPM8; icilin activation; eight-point dose-response; read-out: IC50

{"smiles notation": "CCCCN(c1sc2cc(F)ccc2c1C)S(=O)(=O)c1ccc(C(=O)O)cc1", "IC50 [nM]": 29}
{"smiles notation": "CCCCN(c1sc2ccccc2c1Br)S(=O)(=O)c1ccc(N2CCOCC2)cc1", "IC50 [nM]": 3.2}
{"smiles notation": "O=c1[nH]c(-c2ccc(S(=O)(=O)N(CCC(F)(F)F)c3cc4ccccc4s3)cc2)ns1", "IC50 [nM]": 145}
{"smiles notation": "CCCCN(c1sc2ccccc2c1Br)S(=O)(=O)c1cccnc1", "IC50 [nM]": 26.5}
{"smiles notation": "O=S(=O)(c1ccccc1)N(CC1CC1)c1sc2ccccc2c1Br", "IC50 [nM]": 86}
{"smiles notation": "O=S(=O)(c1cccnc1)N(Cc1ccc(F)c(F)c1)c1cc2ccccc2s1", "IC50 [nM]": 57.4}
{"smiles notation": "CNC(=O)c1c(N(Cc2ccc(F)c(C(F)(F)F)c2)S(=O)(=O)c2ccccc2)sc2ccccc12", "IC50 [nM]": 12}
{"smiles notation": "CCCCN(C1=C(Br)c2ccccc2S1(=O)=O)S(=O)(=O)c1ccc(C(=O)OC)cc1", "IC50 [nM]": 33}
